Recorded values, source patent US20250296953A1.

Test system: 60 different human tumor cell lines
Assay: cells
Conditions: HOP-92, read-out: LC50
Listed here are molecules together with their documented CC50.
Note: unit µM is implicit; provide only the numeric part.

The measured CC50 associated with C[C@]12CC[C@H]3[C@@H](CC=C4c5sc(Nc6ccccc6)nc5CC[C@@]43C)[C@@H]1CC[C@@H]2O reads 27.4

Further cases:
What the record says about C[C@]12CCc3sc(Nc4ccc(OC(F)(F)F)cc4)nc3C1=CC[C@@H]1[C@@H]2CC[C@]2(C)C(=O)CC[C@@H]12 : CC50 is 8.26

###

Tested on: 60 different human tumor cell lines
Conditions: read-out: LC50; MCF7 (Breast Cancer), five dose
measure: CC50 (µM)
State just the number; it will be interpreted in µM.

CC50 in this record for C[C@]12CCc3nc(N)sc3C1=CC[C@@H]1[C@@H]2CC[C@]2(C)C(=NNC(N)=O)CC[C@@H]12 [IVb.1] : 6.5
